biological target: GSTO1 (Homo sapiens, UniProt P78417); test: GSTO1 substrate assay (reduction of 4-NPG); details: read-out: GSTO substrate assay IC50; cluster screening tables
Sequence (P78417 whole entry): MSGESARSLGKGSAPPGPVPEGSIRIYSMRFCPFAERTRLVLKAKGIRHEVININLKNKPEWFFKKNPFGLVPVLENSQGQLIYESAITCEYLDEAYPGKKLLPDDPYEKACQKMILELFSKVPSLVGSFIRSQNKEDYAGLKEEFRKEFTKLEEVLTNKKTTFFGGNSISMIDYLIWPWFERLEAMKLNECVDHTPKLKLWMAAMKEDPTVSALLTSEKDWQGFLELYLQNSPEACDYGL
VALUE_KIND: pIC50
Convention used: pIC50 is expressed as -log10 of the molar concentration.

Q. Which pIC50 is reported with GSTO1 (Homo sapiens, UniProt P78417) for this entry: O=C(CCl)N1CCN(S(=O)(=O)c2ccc(F)c(F)c2)CC1 [C5-14] ?
A. 6.30

Q. Which pIC50 is reported with GSTO1 (Homo sapiens, UniProt P78417) for this entry: CCOc1ccc(NC(=O)CCl)cc1S(=O)(=O)N1CCCCC1 [C1-30] ?
A. 7.10

Q. Which pIC50 is reported with GSTO1 (Homo sapiens, UniProt P78417) for this entry: CN(Cc1cnn(-c2ccccc2)c1)C(=O)CCl [C4-10] ?
A. 5.71
